src = the supplement of paper PMC9732359

# protocolDetails: protein stability index of a GFP-peptide fusion (yeast GPS) (PSI 1-4); higher = more stable; sorted into four equal gates, so the index is relative within each strain
# conditionSet: ubr1∆
So basically every entry gets a class from its protein stability index, ranges being small value (below 2), mid value (2 to below 3), large value (3 or more)

Field: example entries. Status: answers known.
>>> category("PESQGQHEQQKQQEQLE [YMR153W/NUP53]")
"large value"
>>> category("TLIIDQVRKDLGNVIVP [NUT1]")
"mid value"

Please report the category associated with VNEDPIFHPMIHYSWSF [YML103C/NUP188] , nothing else.
mid value

Please report the category associated with EWKSEFVVPTFGQDVSP [SNM1] , nothing else.
mid value

Please report the category associated with ASINTSATVKTSDLLGS [ECM29] , nothing else.
large value
